Data credit: patent US20190092852A1

Consider the following binders; for each one, report its kon.
Target: T1, human IL-33 (R&D Systems, #3625-IL-010/CF) (human) (UniProt O95760)
T1 sequence (looked up): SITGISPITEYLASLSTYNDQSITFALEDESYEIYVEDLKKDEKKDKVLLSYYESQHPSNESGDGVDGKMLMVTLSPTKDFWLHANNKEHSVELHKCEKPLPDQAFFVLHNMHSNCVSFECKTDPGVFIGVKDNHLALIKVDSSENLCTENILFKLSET
Test: SPR Biacore T200, 37 C
Answers are plain numbers, in M⁻¹ s⁻¹.

H4H9665P (antibody, from another filing, IgG4, V domains shown) VH: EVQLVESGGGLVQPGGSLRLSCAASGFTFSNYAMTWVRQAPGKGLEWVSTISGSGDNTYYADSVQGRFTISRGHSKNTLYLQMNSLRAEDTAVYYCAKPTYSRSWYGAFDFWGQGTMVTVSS VL: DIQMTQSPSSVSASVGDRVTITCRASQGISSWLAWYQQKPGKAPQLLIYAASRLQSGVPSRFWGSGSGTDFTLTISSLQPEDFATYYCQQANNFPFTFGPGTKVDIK: 2.35e+06

For every listed record, write down its kon.
1. H4H9660P (antibody, from another filing, IgG4, V domains shown) VH: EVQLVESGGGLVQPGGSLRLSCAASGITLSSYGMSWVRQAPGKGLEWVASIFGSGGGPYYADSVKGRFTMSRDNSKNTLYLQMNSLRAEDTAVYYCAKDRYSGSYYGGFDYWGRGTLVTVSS VL: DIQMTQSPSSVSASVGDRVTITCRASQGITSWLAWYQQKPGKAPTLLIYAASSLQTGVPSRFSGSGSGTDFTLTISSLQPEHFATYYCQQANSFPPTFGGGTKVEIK
2. H4H9672P (antibody, from another filing, IgG4, V domains shown) VH: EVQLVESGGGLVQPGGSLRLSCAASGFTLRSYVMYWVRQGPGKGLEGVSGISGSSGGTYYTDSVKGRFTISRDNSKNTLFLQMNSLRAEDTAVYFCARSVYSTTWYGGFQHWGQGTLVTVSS VL: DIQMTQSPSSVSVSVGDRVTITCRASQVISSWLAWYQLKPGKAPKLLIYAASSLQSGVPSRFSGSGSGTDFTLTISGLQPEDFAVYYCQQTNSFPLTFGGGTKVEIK

A:
1. 1.37e+06
2. 2.39e+06

For every listed record, write down its kon.
1. H4H9666P (antibody, from another filing, IgG4, V domains shown) VH: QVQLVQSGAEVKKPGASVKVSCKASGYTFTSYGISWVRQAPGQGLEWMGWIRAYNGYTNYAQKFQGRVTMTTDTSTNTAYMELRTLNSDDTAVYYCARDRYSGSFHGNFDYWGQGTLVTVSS VL: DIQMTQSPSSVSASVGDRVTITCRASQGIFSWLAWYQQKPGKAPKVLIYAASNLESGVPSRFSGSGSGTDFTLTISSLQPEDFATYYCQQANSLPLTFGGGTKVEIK
2. H4H9662P (antibody, from another filing, IgG4, V domains shown) VH: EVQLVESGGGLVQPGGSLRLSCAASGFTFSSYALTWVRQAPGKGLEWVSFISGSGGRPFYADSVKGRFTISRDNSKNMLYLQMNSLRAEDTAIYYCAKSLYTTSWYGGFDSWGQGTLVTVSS VL: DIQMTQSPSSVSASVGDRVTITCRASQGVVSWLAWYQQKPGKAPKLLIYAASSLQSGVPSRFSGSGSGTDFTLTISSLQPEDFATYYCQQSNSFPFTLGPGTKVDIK

A:
1: 1.69e+06; 2: 2.34e+06
